METHOD DESCRIPTION: yeast display, Sf9 membrane polyspecificity reagent, FACS + sequencing; frameworks hold sequencing errors
METRIC NAME: polyreactivity (PSR sort gate)

Look over these answered cases.
MACROMOLECULE SEQUENCE	polyreactivity (PSR sort gate)
QVQLVESGGGLVHAGGSLRLICASSGFIFWAYAMGWYRQAPGKERELVAAISNNGVSTYYADSVKGRFTISRDIAKNTVYLQMNSLIPEDTAVYYCGATGVRSKRLASQWKLDYWGQGTQVTVST	high polyreactivity
QVKLVESGGGLVQAGGSLRLSCAASGRIFNWYAMGWYRQAPGKERELVAAITSGGSTNYADSVKGRFTISRDNAKNTVYLQMNSLKPEDTAVYFCNARGRFRGYRYYYWGQGTQVTVSS	high polyreactivity
QVQLVESGGGLVQAGGSLRLSCAASGSIFYWYAIGWYRQAPGKETELVAAISSGGSTNYADSVKGRFTISRDNAKNTVYLQMNSLKPEDTAVYYCNADIRSFYWEYYTGLDSWGQGTQVTVSS	low polyreactivity
QVHLVESGGGLVQAGGSLRITCAASGRIFWSYAMGWYRQAPGKEMELVAAITWSGGSTYYADSVKGRFTISRDNAKNTVYLQMIRLKPEDTAVYYCNAATGQPVGLDYWGQGTQVTVSS	low polyreactivity

Consider the record given below.
Lookup: Dear colleague, I am looking for the recorded polyreactivity (PSR sort gate) of the following sequence: QVQLVESGGGLVQAGGSLRLSCAASGSTFFLYAMGWYRQAPGKERELVASITDGGSTNYADSVKGRFTISRDNAKNTVYLQMNSLKPEDTAVYYCNALARSSRYDYWGQGTQVTVSS
Found: low polyreactivity

* * *

METHOD DESCRIPTION: yeast display, Sf9 membrane polyspecificity reagent, FACS + sequencing; frameworks hold sequencing errors
METRIC NAME: polyreactivity (PSR sort gate)

Look over these answered cases.
> print(dat)
                     macromolecule.sequence                     metric.name       endpoint.value
1  QVQLQESGGGLVQAGGSLRLSCAASGYIYSWYPMGWYLQAPGKEREFVATIAPGATTYYADSVKGRFTISRDYAKNTVYLQMNSLKTEDTAVYYCAAGAENNDFYSYWGHGTQVTVSS  polyreactivity (PSR sort gate)   low polyreactivity
2  QVQLVESGGGLVQAGGSLCLSCAASGIFVYNAMGWYRPAPGKEREFVAAINKSGASTFYADSVKGRFTISRDTAKNTVYLQMNSLKPEDTAVYYCRERDYWGQGTQVTVSS  polyreactivity (PSR sort gate)   low polyreactivity
3  QVQLVESGGGLVQAGGSLRLSCAASGFTFAGYAMGWYRQAPGKERELVAGIRSSGARTYYADTVKGRFTISRDNAKNTVYFQLKSLKPDDTAVYYCAKTDGFYGGYGYWGQGTQVTVSS  polyreactivity (PSR sort gate)   low polyreactivity
4  QVQLVESGGGLVQAGGSLRLSCAASGSIIGRNAMGWYRQAPGKERELVAAISTRGGRTYYADSVKGRFTISRDNAKNTVYLQMNSLKPEDTAVYYCAATYQYLKSGYYWGQGTQVTVSS  polyreactivity (PSR sort gate)  high polyreactivity

Consider the record given below.
Lookup: Dear colleague, I am looking for the recorded polyreactivity (PSR sort gate) of the following sequence: QVQLVESGGGLVQAGGSLRLSCAASGRIFGRTAMGWYRKAPGKERELVAAISWRGGNTYYADSVKGRFTISRDNAKNTVYLQMNSLKPEDTAVYYCNTVQYRNEMGYWGQGTQVTVSS
Found: high polyreactivity

* * *

METHOD DESCRIPTION: yeast display, Sf9 membrane polyspecificity reagent, FACS + sequencing; frameworks hold sequencing errors
METRIC NAME: polyreactivity (PSR sort gate)

> print(dat)
                     macromolecule.sequence                     metric.name       endpoint.value
1  QVQLVESGGGLVQAGGSLRLSCAASGRTFRINAMGWYRQAPGKERELVAAITSGGRTNYADSVKGRFTISRDNAKNTVYLQMNSLKPEDTAVYYCAADTTHWYYLGYGYWGQGTQVTVSS  polyreactivity (PSR sort gate)   low polyreactivity
2  QVQLVESGGGLLQAGGSLRLSCAASGRTSGRYAMGWYRQAPGKERELVAAISSGGRTSYADSVKGRFTISRDNAQNTVDLQMISLKPEDTAVYYCAAVFVLARAYNYWGQGTLVTVSS  polyreactivity (PSR sort gate)  high polyreactivity
3  QVQLVESGGGLVQAGGSLRLSCAASGRTFYSYAMGWYRQAPGKERELVAAINSGGDTYYADSVKGRFTISRDNAKNSVYLQMNSLKAEDSAVYYCAADYYWEMDSWGQGTQVTVSS  polyreactivity (PSR sort gate)   low polyreactivity
4  QVQLVESAGGLVQAGGSLRLSCAASGRTFGRYAMGGYRQAPGKERELVAGISGSVGITYYADSVKGRFTISRDNAKNTVYLQMNSLKPEDTAVYYCAVVARAGHKYDYWGQGTQVTVSS  polyreactivity (PSR sort gate)   low polyreactivity

Lookup: Dear colleague, I am looking for the recorded polyreactivity (PSR sort gate) of the following sequence: QVQLVESGGGLVQAGGSLRLSCAASGSIFKKYAMGWYRQAPGKERELVAAITSGGSTYYADSVKGRFTISRDNAKNTVYLQMNSLKPEDTAVYYCATYRKGSLGSWGQGTQVTVSS
Found: high polyreactivity

* * *

METHOD DESCRIPTION: yeast display, Sf9 membrane polyspecificity reagent, FACS + sequencing; frameworks hold sequencing errors
METRIC NAME: polyreactivity (PSR sort gate)

Look over these answered cases.
MACROMOLECULE SEQUENCE	ENDPOINT VALUE
QVQLVESGGGLVQAGGSLRLSCAASGRTFYKNAMGWYRQATGKERELVARISRGGSTNYADSVKGRFTISRDNAKNTVYLQMNSLKPEDTAVYYCAKEYGTHGKTYDYWGQGTQVTVSS	high polyreactivity
QVQLVESGGGLVQAGGSLRLSCAASGRTFRINAMGWYRQAPGKEREMVAAIRSRAGSTYYADSVKGRFTISRDNAKNTVYLQMYSLKPEDTAVYYCAAKFPFDVDYWGQGTQVTVSS	high polyreactivity
QVQLVESGGGLVQAGGSLRLSCAASGSIFGVYTMGWYRQAPGKERELVAAITRSGGSTYYADSVKGRFTISRDNAKNTVYLQMNSLKPEDTAVYYCAARRAYVWCSQGYAHFEYWGQGTQVTVSS	high polyreactivity
QVQRVESGGRLVQAGGSLRLSCAASGSTFPSYAMGWSRQAPGKERELVAAISWSGGTTYYADSVKGRFTISRDNAKNTVYLQMNSLKPEDTAVYYCAAGGRRQAYGRRDYWGQGNQVTVSS	high polyreactivity
QVQLVESVGGLVLAGGSLRLSCAASGFTFPRYVMGSYRPAPGKAREFVAAITFSGGSTYYADSVKGRFTIARDNAKNTVYLQMNSLKPEDTAVYYCAAGASLWRLGLKRGYWGQGTQVTVSS	low polyreactivity

Please state, for each entry, its recorded polyreactivity (PSR sort gate).
1. QVQLVESGGGLVQAGGSLRLSCAASGNTINKYAMGWYRQAPGKERELVAAITRSGGSTYYADSVKGRFTISRDKAKNTVYLQMNSLKPEDTAVYYCAAAYWILYYPIDQAFDYWGQGTQVTVSS
2. QDQLVESGGGLVQAGGSLRLSCAASGRTFSINAMGWYRQAPGKERELVASISSRGTRTNYADSVKGRFTISRDNAKNTVYLQMNSLKPEDTGVYYCAADRYYPYYSAWREYEYWGQGTQVTVSS
3. QVQLVESGGGLVQAGGSLRLSWAASGFIFVSNAMGWYRQAPGKERELVAAITSGDNTKYADSVKGRFTISRDNAKNTVYLQMNSLKPEDTAVYYCAVTNRYQGAGYYWGQGTQVTVSS
4. QVQLVESGGGLVQAGGSLRLSCAASGSTFRYYAMGWYRQAPGKERELVASISSGGSTNYADSVKGRFTISRDNAKNTVYLQMNSLKPGDTAVYYCNADSWTVNRRYYYYRYEYWGQGTQVTVSS
5. QVQLVESGGGLVQAGGSLRLSCAASGRIFTKYPMGRYRQATGKERELVAAITSGGRTYYADSVKGRFTISRDNAKNTVYLQMNSLKPEDTAVYFCAARYVQVVRKFGFRGQGTQVTVSS
6. QDQLVESGGGLVQAGGSLRLSCAASGSTFGYYAMGWYRQAPGKERELVAAITWNGGSTYADSVKGRFTISRDNAKNTVYLQMNSLKPEDTAVYYCAALVHRRVQYDYWGQGTQVTVSS

Found:
low polyreactivity
high polyreactivity
low polyreactivity
low polyreactivity
high polyreactivity
high polyreactivity

* * *

METHOD DESCRIPTION: yeast display, Sf9 membrane polyspecificity reagent, FACS + sequencing; frameworks hold sequencing errors
METRIC NAME: polyreactivity (PSR sort gate)

Look over these answered cases.
MACROMOLECULE SEQUENCE	polyreactivity (PSR sort gate)
QVQLVESGGGLVQAGGSLRLSCAASGSTFLVNAKGWYRQAPGKEWEFVAAITGNAGSTYYADSVKGRFTISRDNEKYTVYLQMNSLKPEDTAVYYCAAALPGYDGDYWGQGTQVTVSS	low polyreactivity
QVQRVETGGGLVQAGGSLRLSCAASGRTIRVYAMGWYRQPPGKETELVPAISGSGGSTYYADSVKGRFTISRDNAKNTVYLQMNSLKPEDTAVYFCYAASWTFQTTPKYDYWGQGTLVTVSS	high polyreactivity
QVQLVESGGGLVQAGGSLRLSCAASGRIFAAYAMGWYRQAPGKERELVAAITWDGDSTYYADSVKGRFTISRDNAKNTVYLQMNSLKPEDTAVYYCAAYWSTWYDWGQGTQVTVSS	high polyreactivity
QVQLVESGGGLVQAGGSLRLSCAASGRIFKSYAMGWYRQAPGKERELVAGITSGGGTYYADSLKGRFTISRDNAKTTVYLQMNSLKPEDTPVYYCATRTYRESTYDYWGQGTQVTVSS	high polyreactivity
QVQLVESGGGLVQAGGSLRLSCAASGSTHVYAMGWYRQAPGKERELVAAISLNTGSTYYADSVKGRFTISRDNAKNTVYLQMNSLKPEDTAVYRLNYWGQGTQVTVSS	low polyreactivity

Please state, for each entry, its recorded polyreactivity (PSR sort gate).
1. QVQLVESGGGIVQAGGSLRLSCAASGNIFPYYAMRWYRQERGKERELVASISRSGGSTYYADSVKGRFTISRDNAKNTVYLEMNSLKPEDTAVYYCNTLSRSWQMDYWGLGTQVTVSS
2. QVQLVESGGGLVQAGGSLRLSCAASGRIFRRYALGWYRQAPGKERELGAAITRSGGSTYYADSVKGRFTISRDNAKNTVYLQMNSLNPEDTAVYYCYAPSSLGTDYDYWGQGTQVTVSS
3. QVQLVESGGGLVQAGGSLRLSCAASGRTFANNAMGSYRPAPGKAREWVASISITTSTYYADSVKGRFTISRDNAKITVYLQLNSLKPEDTPVYYCAAYYFIHAGPWEFDYWGQGTQVTVSS

Found:
low polyreactivity
high polyreactivity
low polyreactivity

Please state, for each entry, its recorded polyreactivity (PSR sort gate).
1. QVQLVESGGGLVQAGGSLRLICAASGFIFDTYTMGWYRQAPGKERELVAAISRSGASTYYADSVKGRFTISRDNAKNTVYLQMNSLKPEDTAVYYCATVYYPSYRGGYDYWGQGTQVTVSS
2. QVQLVESGGGLVQAGGSLRLSCAASGGTFYPYAMGWYRQAPGKERELVAAISASDDNTYYADSVKGRFTISRDNAKNTVYLQMNSLKPEDTAVYYCAKRSYFYPYGYWGQGTQVTVSS
3. QVQLVESGGGLVQAGGSLRLSCAASGRTFQWYVMGWYRQAPGKERELVAAITKSGGSTFYADSVKGRFTISRDNAKNTVYLQMNSLKPEDTAVYYCAASGRYAIVLGDQYYGYYYWGQGTQVTVSS

Found:
["high polyreactivity", "high polyreactivity", "high polyreactivity"]
